# ASSAY_OVERVIEW: water solubility of neat and equilibrated powders
# Type: physicochemical
# TEST_CONDITIONS: water
MEASURE_NAME: solubility (µg/mL)
Number in µg/mL, nothing else.

Please fill in: solubility reported for O=C(Nc1ccc([N+](=O)[O-])cc1Cl)c1cc(Cl)ccc1O [niclosamide] = 20.8

Measured values drawn from paper PMC9477609 for this set.
